test target: Human Factor B (Homo sapiens, UniProt P00751)
Sequence (P00751 26-764): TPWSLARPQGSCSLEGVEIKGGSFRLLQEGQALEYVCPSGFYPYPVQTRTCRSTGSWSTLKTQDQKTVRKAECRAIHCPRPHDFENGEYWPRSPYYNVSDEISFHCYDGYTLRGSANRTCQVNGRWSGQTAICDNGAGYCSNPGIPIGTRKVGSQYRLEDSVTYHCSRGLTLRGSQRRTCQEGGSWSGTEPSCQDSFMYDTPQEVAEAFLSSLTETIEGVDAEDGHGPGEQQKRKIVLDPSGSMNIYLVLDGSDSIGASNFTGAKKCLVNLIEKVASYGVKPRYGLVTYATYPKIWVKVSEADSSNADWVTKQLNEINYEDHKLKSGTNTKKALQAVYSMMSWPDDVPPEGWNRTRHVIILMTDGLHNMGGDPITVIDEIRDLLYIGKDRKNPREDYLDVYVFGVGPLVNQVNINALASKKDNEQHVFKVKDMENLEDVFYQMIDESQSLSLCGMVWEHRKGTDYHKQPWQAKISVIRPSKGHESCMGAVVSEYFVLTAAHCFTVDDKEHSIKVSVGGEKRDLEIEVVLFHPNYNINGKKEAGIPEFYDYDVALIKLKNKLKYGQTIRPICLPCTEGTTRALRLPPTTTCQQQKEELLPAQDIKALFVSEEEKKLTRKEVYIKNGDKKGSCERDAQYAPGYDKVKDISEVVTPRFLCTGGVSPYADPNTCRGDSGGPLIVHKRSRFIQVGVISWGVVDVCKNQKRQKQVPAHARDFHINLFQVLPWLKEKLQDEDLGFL
assay text: Human Factor B cleavage EC50 in 80% human plasma (Table 10A)
Type: biochemical
measurement conditions: chymase-based engineered proteases; no plasma stated; read-out: fB Cleavage EC50
pEC50: −log10 of the molar value.

# molecule, pEC50
measured = [
    ("C22S/D175N/A226R (protein, listed as Homo sapiens) IIGGTESKPHSRPYMAYLEIVTSNGPSKFCGGFLIRRNFVLTAAHCAGRSITVTLGAHNITEEEDTWQKLEVIKQFRHPKYNTSTLHHDIMLLKLKEKASLTLAVGTLPFPSQFNFVPPGRMCRVAGWGRTGVLKPGSDTLQEVKLRLMDPQACSHFRNFDHNLQLCVGNPRKTKSAFKGDSGGPLLCAGVAQGIVSYGRSDAKPPRVFTRISHYRPWINQILQAN", 6.25),
    ("C22S/V138L/S189T/A190G/A226R (protein, listed as Homo sapiens) IIGGTESKPHSRPYMAYLEIVTSNGPSKFCGGFLIRRNFVLTAAHCAGRSITVTLGAHNITEEEDTWQKLEVIKQFRHPKYNTSTLHHDIMLLKLKEKASLTLAVGTLPFPSQFNFVPPGRMCRLAGWGRTGVLKPGSDTLQEVKLRLMDPQACSHFRDFDHNLQLCVGNPRKTKTGFKGDSGGPLLCAGVAQGIVSYGRSDAKPPRVFTRISHYRPWINQILQAN", 5.38),
    ("C22S/V138A/A226R (protein, listed as Homo sapiens) IIGGTESKPHSRPYMAYLEIVTSNGPSKFCGGFLIRRNFVLTAAHCAGRSITVTLGAHNITEEEDTWQKLEVIKQFRHPKYNTSTLHHDIMLLKLKEKASLTLAVGTLPFPSQFNFVPPGRMCRAAGWGRTGVLKPGSDTLQEVKLRLMDPQACSHFRDFDHNLQLCVGNPRKTKSAFKGDSGGPLLCAGVAQGIVSYGRSDAKPPRVFTRISHYRPWINQILQAN", 5.53),
]

Values were extracted from patent US20240117334A1.
